Each entry below carries its reported Kd.
# MEASURED_ON: HTRA1 (construct not given) (Homo sapiens (Human), UniProt Q92743 23-480, limits assumed)
# Sequence (Q92743 23-480 limits assumed): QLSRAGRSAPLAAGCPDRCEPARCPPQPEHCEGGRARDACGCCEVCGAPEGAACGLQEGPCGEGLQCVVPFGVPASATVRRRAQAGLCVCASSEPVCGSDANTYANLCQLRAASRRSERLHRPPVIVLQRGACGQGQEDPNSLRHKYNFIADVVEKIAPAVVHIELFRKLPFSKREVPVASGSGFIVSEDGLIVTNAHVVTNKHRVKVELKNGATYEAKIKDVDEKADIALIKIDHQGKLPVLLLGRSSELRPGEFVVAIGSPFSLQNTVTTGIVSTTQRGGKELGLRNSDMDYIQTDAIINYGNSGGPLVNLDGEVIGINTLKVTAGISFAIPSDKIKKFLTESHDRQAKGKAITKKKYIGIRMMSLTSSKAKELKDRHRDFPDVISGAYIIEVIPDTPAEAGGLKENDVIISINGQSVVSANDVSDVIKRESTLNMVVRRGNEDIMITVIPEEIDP
# EXPERIMENT_NOTES: SPR (Biacore)
MEASURE_NAME: Kd (nM)

[
  {
    "BINDER": "hz24F7.v2 S92T (antibody, human IgG1, kappa, N297G, V domains shown, hz24F7.v2 with a substitution in light chain CDR3) VH: QVQLVQSGAEVKKPGASVKVSCKASGYTFTDYEMHWVRQAPGQRLEWMGAIDPETGGTAYNQKFKGRVTITADKSASTAYMELSSLRSEDTAVYYCTREGYSYEGGGYYFDYWGQGTLVTVSS VL: DIQMTQSPSSLSASVGDRVTITCSVSSSVSYMYWYQQKPGKAPKLLIYDTSNLASGVPSRFSGSGSGTDFTFTISSLQPEDIATYYCQQWSTYPTFGQGTKLEIKR",
    "UNIT_OF_MEASUREMENT": "nM",
    "REPORTED_MEASUREMENT": 0.02
  },
  {
    "BINDER": "hz24F7.v2 S91L (antibody, human IgG1, kappa, N297G, V domains shown) VH: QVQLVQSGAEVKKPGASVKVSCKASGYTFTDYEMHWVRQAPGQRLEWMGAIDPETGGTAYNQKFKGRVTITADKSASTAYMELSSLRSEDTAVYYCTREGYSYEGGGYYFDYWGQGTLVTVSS VL: DIQMTQSPSSLSASVGDRVTITCSVSSSVSYMYWYQQKPGKAPKLLIYDTSNLASGVPSRFSGSGSGTDFTFTISSLQPEDIATYYCQQWLSYPTFGQGTKLEIKR",
    "UNIT_OF_MEASUREMENT": "nM",
    "REPORTED_MEASUREMENT": 0.0439
  },
  {
    "BINDER": "hz24F7.v2 S91Y (antibody, human IgG1, kappa, N297G, V domains shown, hz24F7.v2 with a substitution in light chain CDR3) VH: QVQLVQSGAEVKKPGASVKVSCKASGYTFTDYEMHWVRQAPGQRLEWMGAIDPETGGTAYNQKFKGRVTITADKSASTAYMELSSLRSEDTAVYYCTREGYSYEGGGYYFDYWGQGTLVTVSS VL: DIQMTQSPSSLSASVGDRVTITCSVSSSVSYMYWYQQKPGKAPKLLIYDTSNLASGVPSRFSGSGSGTDFTFTISSLQPEDIATYYCQQWYSYPTFGQGTKLEIKR",
    "UNIT_OF_MEASUREMENT": "nM",
    "REPORTED_MEASUREMENT": 0.0405
  },
  {
    "BINDER": "hz24F7.v2 S91T (antibody, human IgG1, kappa, N297G, V domains shown, hz24F7.v2 with a substitution in light chain CDR3) VH: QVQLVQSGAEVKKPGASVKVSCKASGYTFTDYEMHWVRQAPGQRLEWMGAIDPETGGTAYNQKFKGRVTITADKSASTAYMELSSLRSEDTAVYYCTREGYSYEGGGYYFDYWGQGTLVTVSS VL: DIQMTQSPSSLSASVGDRVTITCSVSSSVSYMYWYQQKPGKAPKLLIYDTSNLASGVPSRFSGSGSGTDFTFTISSLQPEDIATYYCQQWTSYPTFGQGTKLEIKR",
    "UNIT_OF_MEASUREMENT": "nM",
    "REPORTED_MEASUREMENT": 0.0266
  }
]
